Experiment: Liver microsome stability, monkeys
Type: in vitro ADME
Settings: monkey; Monkeys liver microsomes, NADPH, 37° C.
Catalogue of half-life readings, one per entry.
assay.endpoint: half-life

[[record]]
compound = "CC(C)(O)Cn1nc(F)c2cc(-c3c(C#N)cc(N4CCC(N)CC4)nc3-c3ccc(C#N)c(F)c3)c(F)cc21 [Compound 36]"
value = "110 min"

[[record]]
compound = "COc1ccc(-c2c(-c3ccc(C#N)c(F)c3)nc(N3CCC(N)CC3)n(C)c2=O)cc1F [CC-90011, reference compound]"
value = "75 min"

[[record]]
compound = "CC(C)(O)Cn1ncc2cc(-c3c(C#N)cc(N4CCC(N)CC4)nc3-c3ccc(C#N)c(F)c3)c(F)cc21 [Compound 16]"
value = "97.3 min"


====

Experiment: Liver microsome stability, dogs
Type: in vitro ADME
Conditions: dog; Dogs liver microsomes
assay.endpoint: CLint scaled

[[record]]
molecule = "COc1ccc(-c2c(-c3ccc(C#N)c(F)c3)nc(N3CCC(N)CC3)n(C)c2=O)cc1F [CC-90011, reference compound]"
value = "15.8 mL/min/kg"

[[record]]
molecule = "CC(C)(O)Cn1ncc2cc(-c3c(C#N)cc(N4CCC(N)CC4)nc3-c3ccc(C#N)c(F)c3)c(F)cc21 [Compound 16]"
value = "< 13.8 mL/min/kg"

[[record]]
molecule = "CC(C)(O)Cn1nc(F)c2cc(-c3c(C#N)cc(N4CCC(N)CC4)nc3-c3ccc(C#N)c(F)c3)c(F)cc21 [Compound 36]"
value = "< 13.8 mL/min/kg"


====

Assay: Pharmacokinetics of oral and intravenous administration of rats
Assay type: in vivo
Settings: male, rat, plasma, iv; SD rats, i.v. 5.0 mg/kg, 5% DMSO+10% Solutol+85% Saline
Catalogue of Tmax readings, one per entry.
assay.endpoint: Tmax (min)

[[record]]
compound = "CC(C)(O)Cn1ncc2cc(-c3c(C#N)cc(N4CCC(N)CC4)nc3-c3ccc(C#N)c(F)c3)c(F)cc21 [Compound 16]"
assay_endpoint = "Tmax"
unit_symbol = "min"
value = 4.8

[[record]]
compound = "COc1ccc(-c2c(-c3ccc(C#N)c(F)c3)nc(N3CCC(N)CC3)n(C)c2=O)cc1F [CC-90011, reference compound]"
assay_endpoint = "Tmax"
unit_symbol = "min"
value = 4.8


====

Assay: Liver microsome stability, humans
Type: in vitro ADME
Conditions: human; Humans liver microsomes
Catalogue of CLint scaled readings, one per entry.
assay.endpoint: CLint scaled

[[record]]
compound = "COc1ccc(-c2c(-c3ccc(C#N)c(F)c3)nc(N3CCC(N)CC3)n(C)c2=O)cc1F [CC-90011, reference compound]"
value = "13.2 mL/min/kg"

[[record]]
compound = "CC(C)(O)Cn1ncc2cc(-c3c(C#N)cc(N4CCC(N)CC4)nc3-c3ccc(C#N)c(F)c3)c(F)cc21 [Compound 16]"
value = "< 8.6 mL/min/kg"

[[record]]
compound = "CC(C)(O)Cn1nc(F)c2cc(-c3c(C#N)cc(N4CCC(N)CC4)nc3-c3ccc(C#N)c(F)c3)c(F)cc21 [Compound 36]"
value = "< 8.6 mL/min/kg"


====

Assay: Liver microsome stability, monkeys
Assay type: in vitro ADME
Details: monkey; Monkeys liver microsomes
assay.endpoint: CLint scaled (mL/min/kg)

[[record]]
compound = "CC(C)(O)Cn1nc(F)c2cc(-c3c(C#N)cc(N4CCC(N)CC4)nc3-c3ccc(C#N)c(F)c3)c(F)cc21"
value = 16.9

[[record]]
compound = "CC(C)(O)Cn1ncc2cc(-c3c(C#N)cc(N4CCC(N)CC4)nc3-c3ccc(C#N)c(F)c3)c(F)cc21"
value = 19.2

[[record]]
compound = "COc1ccc(-c2c(-c3ccc(C#N)c(F)c3)nc(N3CCC(N)CC3)n(C)c2=O)cc1F [CC-90011, reference compound]"
value = 25

